Entry source: ChEMBL document CHEMBL1201862

Below: a set of entries, each annotated with reported GI50.
Test system: EKVX
Assay Method Text: NCI tumour cell line growth inhibition, 48 h
The source made the active and inactive calls. No stated cut-off is given here; in the data, active = GI50 up to about 1.1 µM and inactive = higher.

The examples below pair each entry with its known result.
Compound	GI50
CCOc1cc(NC(C)=O)ccc1C(=O)NN1C(=O)/C(=C/c2ccco2)N=C1c1ccccc1	74.3 µM (inactive)
N/C(=N\O)N/N=C\c1c2ccccc2c(Cl)c2ccccc12	3.03 µM (inactive)
O=Cc1cc2c(s1)C(=O)c1sccc1C2=O	1.61 µM (inactive)
CC(C)c1ccc(C2NC(S)=NC3=C2c2ccccc2C3=O)cc1 (stereo not drawn)	33.4 µM (inactive)
Cc1sc2ncnc(NCCc3ccccc3)c2c1C	1.68 µM (inactive)
O=C(c1ccccc1)[C@@H]1C[C@H](Sc2ccccc2)c2cc(Cl)ccc2N1	10 µM (inactive)
Cc1nn(C(=O)Cc2ccccc2)c2c1C(c1ccc(N(C)C)cc1)SC(=N)N2 (stereo not drawn)	> 100 µM (inactive)
COc1ccc(/C=C2\NC(=S)N(CN3CCOCC3)C2=O)cc1	> 100 µM (inactive)
O=C1c2ccccc2-c2c1c(-c1ccc([N+](=O)[O-])cc1)nc1ccc3ccccc3c21	> 100 µM (inactive)
CC12CC3C(CC1SCC(=O)O2)C3(C)C (stereo not drawn)	> 100 µM (inactive)

Form: Entry = O=C(/C(=N\Nc1ccc([N+](=O)[O-])cc1[N+](=O)[O-])NC12CC3CC(CC(C3)C1)C2)C(Br)C(=O)c1ccccc1 (stereo not drawn) | System = EKVX | GI50 = ____
3.56 µM (inactive)

API: value(readout= GI50, system= EKVX, query= O=C1CCCCC1CN1CCCC1 (stereo not drawn) )
> 100 µM (inactive)

Item: CN(C)CCCNc1cnc2cc3ccccc3cc2n1 Test system: EKVX Read-out: GI50 Value: ?
28 µM (inactive)

Report GI50 for COc1c(C(=O)O)cccc1-c1cccc(C(=O)NCCN(CCNC(=O)c2cccc(-c3cccc(C(=O)O)c3OC)c2OC)CCNC(=O)c2cccc(-c3cccc(C(=O)O)c3OC)c2OC)c1OC tested on EKVX.
64.6 µM (inactive)

Entry Cc1cccc2c(N)c3cccc(C(=O)NCC[N+](C)(C)Cc4ccc([N+](=O)[O-])n4C)c3nc12 , system EKVX: what GI50 was measured?
27.6 µM (inactive)

Fill in the recorded GI50 for this compound, with EKVX as test system: CCOC(=O)CN1C(=O)c2cc([N+](=O)[O-])cc3cc([N+](=O)[O-])cc(c23)C1=O
> 100 µM (inactive)

Write down the reported GI50 of CC(C)(C)c1cc(/C=C(\C#N)C(=O)NCCO)cc(C(C)(C)C)c1O , test system: EKVX.
24.5 µM (inactive)

Request: GI50, test system EKVX, entry N#CC(C(=O)/C(=N\NC(N)=O)C(C#N)c1ccc(Cl)cc1)c1ccc(Cl)cc1 (stereo not drawn)
> 100 µM (inactive)
